- procedure text: Lethality in 50% (LD50) of male and female CF-1 strain mice weighing 16-25g, intraperitoneal administration
- Format: ADME, organism-based
- stated conditions: both, CF-1, mouse, in vivo, ip
In plain terms, low LD50, meaning strictly below 300 mg/kg, gives Met, and everything else gives Not met.

compound smiles | assigned label
CC(C)N(CCOc1ccccc1/N=C(/Nc1ccccc1)c1ccccc1)C(C)C.Cl | Met
Br.CCN/C(=N/c1ccc(OCCN(C(C)C)C(C)C)cc1)c1ccccc1 | Met
Cc1cccc(/N=C(\Nc2ccc(OCCN(C(C)C)C(C)C)cc2)c2ccccc2)c1C | Not met
CC(C)CN/C(=N/c1ccc(OCCN(C(C)C)C(C)C)cc1)c1ccccc1 | Met
CC(C)N(CCOc1ccc(N/C(=N\c2ccc(Cl)c(Cl)c2)c2ccccc2)cc1)C(C)C.Cl | Not met

---

- procedure text: Dose that produces lethality in 50% (LD50) of male and female carworth farms CF-1 strain mice weighing 16-25 g oral (po) route of administration
- Format: ADME, organism-based
- stated conditions: both, CF-1, mouse, in vivo

compound smiles | LD50, mg/kg
Br.CN(C)CCOc1ccc(N/C(=N\c2ccccc2)c2ccccc2)cc1 | 500
CC(C)N(CCCOc1ccc(N/C(=N\c2ccc(Cl)cc2)c2ccccc2)cc1)C(C)C.Cl | 1000
Br.c1ccc(/N=C(\Nc2ccc(OCCN3CCCCC3)cc2)c2ccccc2)cc1 | 467
CC(C)N(CCOc1ccc(N/C(=N\Cc2ccccc2)c2ccccc2)cc1)C(C)C.Cl | 450
CN/C(=N/c1ccc(OCCN(C(C)C)C(C)C)cc1)c1ccccc1 | 500
CC(C)N(CCc1ccc(/C(=N\c2ccccc2)Nc2ccccc2)cc1)C(C)C.Cl | 587
CCN(CC)CCOc1ccc(N/C(=N\c2ccccc2)c2ccccc2)cc1.O=C(O)C(=O)O | 687
CCCCN(CCCC)CCCOc1ccc(N/C(=N\c2ccccc2)c2ccccc2)cc1.Cl | 867
Cc1cccc(/N=C(\Nc2ccc(OCCN(C(C)C)C(C)C)cc2)c2ccccc2)c1C | 1000
COc1ccc(N/C(=N/c2ccc(OCCCN(C(C)C)C(C)C)cc2)c2ccccc2)cc1.Cl | 450

---

Catalogue of LD50 values
- procedure text: Dose that produces lethality in 50% (LD50) of male and female carworth farms CF-1 strain mice weighing 16-25 g oral (po) route of administration
- Assay type: ADME, organism-based
- stated conditions: both, CF-1, mouse, in vivo

compound smiles | LD50, mg/kg
CC(C)N(CCSc1ccc(N/C(=N\c2ccccc2)c2ccccc2)cc1)C(C)C.Cl | 400
CC(C)N(CCOc1ccccc1/N=C(/Nc1ccccc1)c1ccccc1)C(C)C.Cl | 840
CC(C)N(CCOc1cccc(N/C(=N\c2ccccc2)c2ccccc2)c1)C(C)C.Cl | 240
CCCCN(CCCC)CCOc1ccc(N/C(=N\c2ccccc2)c2ccccc2)cc1.Cl | 800
CC(C)N(CCOc1ccc(N/C(=N\c2ccc(Cl)c(Cl)c2)c2ccccc2)cc1)C(C)C.Cl | 1000
Br.COc1ccc(N/C(=N/c2ccc(OCCCN3CCCC3)cc2)c2ccccc2)cc1 | 400
Br.c1ccc(/N=C(\Nc2ccc(OCCN3CCOCC3)cc2)c2ccccc2)cc1 | 715
Br.c1ccc(/N=C(\Nc2ccc(OCCN3CCCC3)cc2)c2ccccc2)cc1 | 500
COc1ccc(/C(=N\c2ccc(OCCN(C(C)C)C(C)C)cc2)Nc2ccccc2)cc1.Cl | 475
Cl.c1ccc(/N=C(\Nc2ccc(SCCN3CCCC3)cc2)c2ccccc2)cc1 | 587
Br.COc1ccc(N/C(=N/c2ccc(OCCN3CCCC3)cc2)c2ccccc2)cc1 | 900
CC(C)N(CCOc1ccc(N/C(=N\c2ccccc2)c2ccc(Cl)cc2)cc1)C(C)C.Cl | 1000
Br.c1ccc(/N=C(\Nc2ccc(OCCCN3CCCC3)cc2)c2ccccc2)cc1 | 543
Br.CC(C)N(CCOc1ccc(N/C(=N\c2ccc(F)cc2)c2ccccc2)cc1)C(C)C | 630
CC(C)N(CCOc1ccc(N/C(=N\C2CCCCC2)c2ccccc2)cc1)C(C)C | 373
COc1ccc(N/C(=N/c2ccc(OCCN(C(C)C)C(C)C)cc2)c2ccccc2)cc1.Cl | 687
C=CC/N=C(\Nc1ccc(OCCN(C(C)C)C(C)C)cc1)c1ccccc1 | 653
Br.COc1ccc(N/C(=N/c2ccc(OCCCN3CCCC3)cc2)c2ccc(C)cc2)cc1 | 400
CC(C)CN/C(=N/c1ccc(OCCN(C(C)C)C(C)C)cc1)c1ccccc1 | 360
Br.CCN/C(=N/c1ccc(OCCN(C(C)C)C(C)C)cc1)c1ccccc1 | 687
